assay: Lipophilicity, log D of the compound at pH 7.4; format: physicochemical; details: buffer
Lab note: anything with logD at or over 0.3 counts as label 1; the rest go in label 0.

Example entries begin here.
> print(dat)
                            molecularstring  classname
1  CC(C)N1CCC(Oc2ccc3c(c2)cc(C(=O)N2CCC(F)(F)CC2)n3C(C)C)CC1    label 1
2  CC(C)N1CCC(Oc2ccc3c(c2)cc2n3CCN(CCO)C2=O)CC1    label 0
3  CC(C)N1CCC(Oc2ccc3c(c2)cc2n3CCCNC2=O)CC1    label 0
4  CC(C)N1CCC(Oc2ccc3c(c2)cc2n3CCN(C)C2=O)CC1    label 0
5  CC(C)N1CCC(Oc2ccc3c(c2)cc2n3C[C@@H](C)N(CC3CC3)C2=O)CC1    label 1
6  CC(C)N1CCC(Oc2ccc3c(c2)cc2n3[C@@H](C)CNC2=O)CC1    label 0
7  CC(C)N1CCC(Oc2ccc3c(c2)cc2n3[C@H](C)CNC2=O)CC1    label 0
8  CC(C)N1CCC(Oc2cc3cc4n(c3cc2Br)[C@@H](C)CNC4=O)CC1    label 1
9  CC(C)N1CCC(Oc2ccc3c(c2)cc2n3CCN(Cc3ccncc3)C2=O)CC1    label 1

Query molecule follows.
Would you say CC(C)N1CCC(Oc2ccc3c(c2)cc2n3C[C@@H](C)NC2=O)CC1 shows logD at minimum 0.3?
label 0

----------
Catalogue of solubility readings, one per entry.
test: Aqueous solubility of the compound in 0.05 M phosphate buffer at pH 6.5; assay type: physicochemical

Solved cases (5 shown):
> print(dat)
                            molecularstring  measuredparameter  endpointresult
1  CC(C)N1CCC(Oc2ccc3c(c2)cc2n3CCN(Cc3ccncc3)C2=O)CC1         solubility   > 0.456 mg/mL
2  CC(C)N1CCC(Oc2ccc3c(c2)cc2n3C[C@@H](C)NC2=O)CC1         solubility     0.284 mg/mL
3  CC(C)N1CCC(Oc2cc3cc4n(c3cc2Br)[C@@H](C)CN(CC2CC2)C4=O)CC1         solubility     0.506 mg/mL
4  CC(C)N1CCC(Oc2ccc3c(c2)cc2n3CCN(CC3CC3)C2=O)CC1         solubility   > 0.508 mg/mL
5   CC(C)N1CCC(Oc2ccc3c(c2)cc2n3CCNC2=O)CC1         solubility   > 0.436 mg/mL

Now for the molecule whose solubility we want.
Value lookup for solubility; key = CC(C)N1CCC(Oc2ccc3c(c2)cc2n3[C@H](C)CNC2=O)CC1
> 0.455 mg/mL

----------
biological target: Histamine H3 receptor (Rattus norvegicus)
Sequence (Q9QYN8 whole entry): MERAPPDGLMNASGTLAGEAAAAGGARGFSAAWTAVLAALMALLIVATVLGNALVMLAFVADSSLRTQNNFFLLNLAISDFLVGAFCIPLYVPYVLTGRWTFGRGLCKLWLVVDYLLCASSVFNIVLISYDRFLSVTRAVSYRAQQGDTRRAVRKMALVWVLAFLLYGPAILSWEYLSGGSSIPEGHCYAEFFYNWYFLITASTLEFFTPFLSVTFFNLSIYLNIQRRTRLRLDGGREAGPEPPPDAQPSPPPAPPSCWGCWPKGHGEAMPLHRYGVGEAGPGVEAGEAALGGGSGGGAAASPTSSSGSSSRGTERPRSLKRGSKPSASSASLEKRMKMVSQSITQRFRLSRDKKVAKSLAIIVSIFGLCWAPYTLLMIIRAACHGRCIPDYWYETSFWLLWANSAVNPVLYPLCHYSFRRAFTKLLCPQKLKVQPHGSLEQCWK
measuredParameter: Ki (nM)
A number alone suffices; assume nM.

Give Histamine H3 receptor (Rattus norvegicus) Ki for CC(C)N1CCC(Oc2ccc3c(c2)cc2n3C[C@@H](C)N(CC3CC3)C2=O)CC1
12

----------
test: Intrinsic clearance in human liver microsomes; type: ADME, Microsome
Label scheme for microsomal CLint: zone 1 (below 3 µL/min/mg), zone 2 (3 µL/min/mg to below 7 µL/min/mg), zone 3 (7 µL/min/mg or more)

Answered cases to consult:
> print(dat)
                            molecularstring  classname
1  CC(C)N1CCC(Oc2ccc3c(c2)cc2n3CCN(C)C2=O)CC1     zone 1
2   CC(C)N1CCC(Oc2ccc3c(c2)cc2n3CCNC2=O)CC1     zone 1
3  CC(C)N1CCC(Oc2ccc3c(c2)cc(C(=O)N2CCC(F)(F)CC2)n3C(C)C)CC1     zone 2

# classify by microsomal CLint band: CC(C)N1CCC(Oc2ccc3c(c2)cc2n3C[C@@H](C)N(CC3CC3)C2=O)CC1
zone 2

Quick check: band for CC(C)N1CCC(Oc2cc3cc4n(c3cc2Br)[C@@H](C)CNC4=O)CC1
zone 1

Band assignment needed for CC(C)N1CCC(Oc2ccc3c(c2)cc2n3CCN(Cc3ccc(F)cc3)C2=O)CC1 please.
zone 2

# classify by microsomal CLint band: CC(C)N1CCC(Oc2ccc3c(c2)cc2n3CCN(Cc3ccncc3)C2=O)CC1
zone 3

The entry to classify is CC(C)N1CCC(Oc2ccc3c(c2)cc2n3CCN(CCO)C2=O)CC1 ; which class holds it?
zone 3

Which bin should I file CC(C)N1CCC(Oc2ccc3c(c2)cc2n3[C@@H](C)CNC2=O)CC1 under?
zone 2

Form field 'band' for CC(C)N1CCC(Oc2ccc3c(c2)cc2n3CCN(CC3CC3)C2=O)CC1
zone 3

----------
biological target: Histamine H2 receptor (Homo sapiens) (UniProt P25021); assay: Displacement of [3H]-tiotidine from human histamine H2 receptor; parameters: concentration or dose not given beside the values; conditions: concentration not given here
Sequence (P25021 whole entry): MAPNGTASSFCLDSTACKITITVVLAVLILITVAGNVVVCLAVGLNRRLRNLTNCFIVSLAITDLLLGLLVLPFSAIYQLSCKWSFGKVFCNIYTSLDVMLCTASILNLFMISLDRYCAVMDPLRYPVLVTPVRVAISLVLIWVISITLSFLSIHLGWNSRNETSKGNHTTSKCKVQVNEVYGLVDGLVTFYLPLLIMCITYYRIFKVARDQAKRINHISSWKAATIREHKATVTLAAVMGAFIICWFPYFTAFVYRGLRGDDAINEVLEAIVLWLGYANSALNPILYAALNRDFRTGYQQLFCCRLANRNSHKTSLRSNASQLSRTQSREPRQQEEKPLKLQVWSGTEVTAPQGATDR
# reported inhibition; entries follow
Enter your answer as a number in %; do not include the unit.

> print(dat)
                            molecularstring  measuredparameter  endpointresult
1  C[C@H]1CC[C@H](C)N1CCCOc1ccc2c(c1)cc1n2CCNC1=O         inhibition              17
2  CC(C)N1CCC(Oc2ccc3c(c2)cc2n3CCN(Cc3ccccc3F)C2=O)CC1         inhibition               6

# lookup: inhibition of CC(C)N1CCC(Oc2ccc3c(c2)cc2n3[C@H](C)CNC2=O)CC1
10

What value of inhibition has been recorded for this entry: CC(C)N1CCC(Oc2ccc3c(c2)cc2n3C[C@@H](C)N(CC3CC3)C2=O)CC1
8

----------
assay: Aqueous solubility of the compound in 0.05 M phosphate buffer at pH 6.5; type: physicochemical
Measured solubility values are reported for all entries that follow.

> print(dat)
                            molecularstring  endpointresult
1  CC(C)N1CCC(Oc2ccc3c(c2)cc2n3CCN(Cc3ccc(F)cc3)C2=O)CC1       382 µg/mL
2  CC(C)N1CCC(Oc2ccc3c(c2)cc2n3CCN(C)C2=O)CC1     > 455 µg/mL
3  C[C@@H]1CCCN1CCCOc1ccc2c(c1)cc1n2CCNC1=O     > 436 µg/mL
4  CC(C)N1CCC(Oc2cc3cc4n(c3cc2Br)[C@@H](C)CNC4=O)CC1     > 526 µg/mL
5  CC(C)N1CCC(Oc2ccc3c(c2)cc(C(=O)N2CCC(F)(F)CC2)n3C(C)C)CC1     > 589 µg/mL
6  CC(C)N1CCC(Oc2ccc3c(c2)cc2n3[C@@H](C)CNC2=O)CC1       345 µg/mL

# lookup: solubility of CC(C)N1CCC(Oc2ccc3c(c2)cc2n3C[C@H](C)NC2=O)CC1
> 455 µg/mL

Quick one: solubility for CC(C)N1CCC(Oc2ccc3c(c2)cc2n3CCCNC2=O)CC1 ?
> 455 µg/mL
